- Target of assay: T1, human SIRPαBIT expressed on cells (human, UniProt P78324 31-504)
- T1 construct: endogenous on U937 cells or transiently expressed on ExpiCHO-S cells; in the SHP-1 assay a ProLink-tagged form on Jurkat cells; also called huSIRPαBIT; U937 cells (huSIRPαBIT)
- T1 sequence (P78324 31-504 limits assumed): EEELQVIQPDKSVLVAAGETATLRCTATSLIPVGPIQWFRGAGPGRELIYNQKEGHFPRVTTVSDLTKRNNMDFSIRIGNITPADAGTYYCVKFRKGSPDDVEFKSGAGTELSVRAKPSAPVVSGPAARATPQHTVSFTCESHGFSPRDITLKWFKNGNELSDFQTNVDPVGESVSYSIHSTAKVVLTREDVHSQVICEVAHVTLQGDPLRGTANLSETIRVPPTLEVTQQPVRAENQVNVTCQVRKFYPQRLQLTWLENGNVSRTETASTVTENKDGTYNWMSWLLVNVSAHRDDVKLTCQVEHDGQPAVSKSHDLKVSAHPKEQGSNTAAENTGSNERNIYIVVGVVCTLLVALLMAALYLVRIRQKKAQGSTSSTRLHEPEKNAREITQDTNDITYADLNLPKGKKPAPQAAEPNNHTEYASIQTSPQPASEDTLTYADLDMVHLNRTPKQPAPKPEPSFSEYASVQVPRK
- Protocol: flow cytometry, U937 cells
- Protocol: After an incubation time of 30 min at 4° C., the cells were washed three times with ice-cold FACS buffer and 50 μl/well secondary mAb (for human antibodies, AffiniPure F(ab′)₂ fragment Goat-anti-human IgG-APC, 1:6,000 dilution, Jackson Immuno Research was added and for mouse antibodies, AffiniPure Fab fragment Goat Anti-Mouse IgG (H+L)-Alexa Fluor 488, 1:1,000 dilution, Jackson Immuno Research was added). After 30 min at 4° C., cells were washed twice and resuspended in 150 μl FACS buffer. […]
Reported property: EC50
Answer format: value, then unit.

These solved cases illustrate the format of a correct answer.
humanized anti-SIRPα antibody 7 (antibody, human IgG1, kappa, L234A L235A, V domains shown, human IgG1 LALA, kappa; also called mAb 7) VH: RQLVESGGGLVQPGGSLRLSCAASGFSLSSHGISWVRQAPGKGLEWVGTIGTGVITYYASWAKGRFTGSKTSSTAYLQMTSLRAEDTAVYYCARGSAWNDPFDYWGQGTLVTVSS VL: DIVMTQSPSSLSASVGDRVTITCQASQSVYGNNDLAWYQQKPGQAPKLLIYLASTLATGVPSRFSGSGSGTDFTLTISSLQPEDFATYYCLGGGDDEADNTFGQGTKVEIKR	3.55 µg/mL
29AM4-5-LALA (IgG1) (antibody, V domains shown, human IgG1 LALA, kappa; also called 29AM4-5huIgG1LALA) VH: EVQLVESGGGLVQPGGSLRLSCAASGFNISYYFIHWVRQAPGKGLEWVASVYSSFGYTYYADSVKGRFTISADTSKNTAYLQMNSLRAEDTAVYYCARFTFPGLFDGFFGAYLGSLDYWGQGTLVTVSS VL: DIQMTQSPSSLSASVGDRVTITCRASQSVSSAVAWYQQKPGKAPKLLIYSASSLYSGVPSRFSGSRSGTDFTLTISSLQPEDFATYYCQQAVNWVGALVTFGQGTKVEIKR	0.17 µg/mL

Now consider a different binder.
Supply recorded EC50 for humanized anti-SIRPα antibody 6 (antibody, human IgG1, kappa, L234A L235A, V domains shown, human IgG1 LALA, kappa; also called mAb 6) VH: RQLVESGGGLVQPGGSLRLSCTASGFSLSSHGISWVRQAPGKGLEYIGTIGTGVITYFASWAKGRFTGSKTSSTAYMELSSLRSEDTAVYFCARGSAWNDPFDPWGQGTLVTVSS VL: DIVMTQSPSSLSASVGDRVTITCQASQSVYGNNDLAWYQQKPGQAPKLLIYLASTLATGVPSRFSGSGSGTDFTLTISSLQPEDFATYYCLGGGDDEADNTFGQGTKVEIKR here. 0.14 µg/mL
